Hello, the source for this data is patent US20220089593A1, in case you need it.

Entries annotated with measured half-life at 1 μM
# assay-text: Dog liver microsomal stability
# Type: in vitro ADME
# condition-details: dog liver microsomes 0.5 mg protein/mL, compound 1 μM, β-NADPH 1 mM, 37° C.

molecule | endpoint-unit | half-life at 1 μM
N#Cc1c(N2CCCCCC2)c2ccccc2[nH]c1=O [Compound I-8, reference compound] | h | 0.2
CCc1ccc2[nH]c(=O)c(C#N)c(N3CCC(C)(OC)CC3)c2n1 | h | 2.32
COC1(C)CCN(c2c(C#N)c(=O)[nH]c3cnc(C(C)OP(=O)([O-])[O-])cc23)CC1.[Na+].[Na+] (centres unmarked) | h | 8.25
COC1(C)CCN(c2c(C#N)c(=O)[nH]c3ccc(C)nc23)CC1 | h | 6.8
COC1(C)CCN(c2c(C#N)c(=O)[nH]c3cnc([C@H](C)O)cc23)CC1 (single isomer, unassigned) | h | 14.4
